meta.source: patent US20130259876A1

molecular target: T1, HLA-B*2705 heavy chain with human beta 2 microglobulin on splenocytes of HLA-B27/hb2m transgenic mice (human); experiment: flow cytometry, HLA-B27/hb2m transgenic mouse splenocytes, antibody 1 ug/ml
T1 construct: whole, on cells; also called TG; HLA-B*27+ transgenic splenocytes
Endpoint: MFI (MFI)
Number in MFI, nothing else.

Asked: Give the reported MFI for this binder. H4H2530S (antibody, V domains shown) VH: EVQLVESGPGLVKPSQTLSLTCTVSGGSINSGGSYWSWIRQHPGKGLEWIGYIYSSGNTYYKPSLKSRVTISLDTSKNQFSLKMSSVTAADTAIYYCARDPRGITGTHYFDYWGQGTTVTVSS VL: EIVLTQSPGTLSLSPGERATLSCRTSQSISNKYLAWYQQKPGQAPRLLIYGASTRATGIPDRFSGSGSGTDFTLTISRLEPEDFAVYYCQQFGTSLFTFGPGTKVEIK
Given back: 512

Asked: Retrieve MFI measured for H4H2538P (antibody, V domains shown) VH: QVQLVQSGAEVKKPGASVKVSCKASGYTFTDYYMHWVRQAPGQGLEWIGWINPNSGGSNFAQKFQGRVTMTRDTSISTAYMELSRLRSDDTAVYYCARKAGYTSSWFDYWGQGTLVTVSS VL: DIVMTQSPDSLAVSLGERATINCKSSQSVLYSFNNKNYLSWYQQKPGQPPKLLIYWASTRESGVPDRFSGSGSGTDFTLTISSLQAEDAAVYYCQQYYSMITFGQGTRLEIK and print it.
Given back: 533
